src = paper PMC10786891

Target: T1, EsCas13d, nuclease-dead (Eubacterium siraeum, UniProt B0MS50, R295A;H300A;R849A;H854A)
T1 sequence: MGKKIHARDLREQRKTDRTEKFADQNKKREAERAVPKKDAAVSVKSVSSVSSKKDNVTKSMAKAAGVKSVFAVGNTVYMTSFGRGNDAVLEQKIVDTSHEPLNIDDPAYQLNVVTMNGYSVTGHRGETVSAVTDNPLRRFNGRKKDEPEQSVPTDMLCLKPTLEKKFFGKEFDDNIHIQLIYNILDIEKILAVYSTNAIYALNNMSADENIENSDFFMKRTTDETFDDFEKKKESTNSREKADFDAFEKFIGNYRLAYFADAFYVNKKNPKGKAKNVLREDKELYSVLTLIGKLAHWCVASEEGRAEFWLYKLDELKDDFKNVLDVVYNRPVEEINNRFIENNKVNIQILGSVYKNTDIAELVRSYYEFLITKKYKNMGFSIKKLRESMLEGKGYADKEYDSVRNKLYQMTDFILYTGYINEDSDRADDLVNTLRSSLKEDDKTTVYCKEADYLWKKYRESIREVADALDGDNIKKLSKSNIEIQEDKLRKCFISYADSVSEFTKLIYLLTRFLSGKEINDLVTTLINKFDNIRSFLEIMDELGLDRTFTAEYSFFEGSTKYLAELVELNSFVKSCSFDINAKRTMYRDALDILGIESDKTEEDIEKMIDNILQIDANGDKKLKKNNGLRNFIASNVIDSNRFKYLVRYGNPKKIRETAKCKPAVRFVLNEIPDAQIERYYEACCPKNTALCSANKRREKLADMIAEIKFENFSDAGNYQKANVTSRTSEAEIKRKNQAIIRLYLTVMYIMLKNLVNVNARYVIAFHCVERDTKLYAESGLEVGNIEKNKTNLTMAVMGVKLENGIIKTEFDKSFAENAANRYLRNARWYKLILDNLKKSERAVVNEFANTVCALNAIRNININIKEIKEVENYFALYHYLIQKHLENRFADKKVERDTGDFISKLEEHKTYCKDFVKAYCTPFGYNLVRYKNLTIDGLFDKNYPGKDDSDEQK
Experiment: crRNA (strand 1, pre-loaded); Mg2+; 40 mM Tris-HCl pH 7.5, 150 mM NaCl, 6 mM MgCl2, 1 mM DTT, 0.1% Tween-20, 0.2 mg/ml BSA; 25 C; 10 min per concentration, then washed
Settings: tags: His6-TwinStrep-SUMO cleaved; N-terminal SNAP kept (SNAP-Surface 488); label: 3' end held by stalled T7 RNA polymerase
# Lookup of reported pKd keyed by entry
When answering, recall that pKd equals minus log10 of the concentration in mol/L, and write that number alone.

binder	reported.result
target 1 insU 3' of 15,insU 3' of 1 (mixed) RNA 1: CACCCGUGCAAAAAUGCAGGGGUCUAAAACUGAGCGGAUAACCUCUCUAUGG RNA 2: GGGAAUGGAUCCACAUCUACGAAUUCGUACCAUAGAGUAGGUUAUCCGCUCAUCCGAGAUCGGAAGAGCACACGU	7.95
target 3 insA 3' of 4 (mixed) RNA 1: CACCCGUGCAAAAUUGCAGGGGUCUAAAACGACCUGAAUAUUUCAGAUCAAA RNA 2: GGGAAUGGAUCCACAUCUACGAAUUCGUUUUUGAUCUGAAAUAUUCAGAGUCUGCAGAUCGGAAGAGCACACGU	7.18

Consider the binder shown here: target 2 MT 5'PFS UCU 3'PFS AUC (mixed) RNA 1: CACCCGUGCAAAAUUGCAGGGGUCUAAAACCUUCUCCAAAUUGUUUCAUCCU RNA 2: GGGAAUGGAUCCACAUCUACGAAUUCUCUAGGAUGAAACAAUUUGGAGAAGAUCAGAUCGGAAGAGCACACGU What is its recorded pKd?
8.14
